Where do the numbers come from? From ChEMBL document CHEMBL1125477.

Form field: pKB (one value per entry).
- System Tested: Substance-K receptor (Rattus norvegicus) (UniProt P16610)
- Sequence (P16610 whole entry): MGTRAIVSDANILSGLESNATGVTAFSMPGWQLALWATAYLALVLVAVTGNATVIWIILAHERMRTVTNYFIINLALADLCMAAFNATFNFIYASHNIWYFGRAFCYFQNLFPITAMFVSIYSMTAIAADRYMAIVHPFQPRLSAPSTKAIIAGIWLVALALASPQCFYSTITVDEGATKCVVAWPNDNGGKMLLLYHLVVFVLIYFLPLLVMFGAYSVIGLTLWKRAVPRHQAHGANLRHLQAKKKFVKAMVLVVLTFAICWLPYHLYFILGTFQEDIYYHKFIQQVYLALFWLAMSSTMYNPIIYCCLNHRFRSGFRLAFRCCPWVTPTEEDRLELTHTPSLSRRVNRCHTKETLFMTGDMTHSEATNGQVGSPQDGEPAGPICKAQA
- Experimental Protocol: Compound was evaluated for antagonism of contractile response of rat colon muscularis mucosae (RC) at tachykinin receptor 2
- Format: functional, tissue-based
- Condition Summary: Muscularis mucosa
Metric Name: pKB

1. CCCC[C@H](NC(=O)[C@@H]1CCCN1C(=O)[C@H]1CCCN1C(=O)[C@H](Cc1ccccc1)NC(=O)[C@@H](Cc1c[nH]c2ccccc12)NC(=O)[C@H](C)NC(=O)[C@H](CCC/N=C(\N)N[N+](=O)[O-])NC(=O)OC(C)(C)C)C(N)=O; 8.2
2. CCCC[C@H](NC(=O)[C@@H]1CCCN1C(=O)[C@H]1CCCN1C(=O)[C@H](Cc1ccccc1)NC(=O)[C@@H](Cc1c[nH]c2ccccc12)NC(=O)[C@H](C)NC(=O)[C@@H](CCC(=O)OCc1ccccc1)NC(=O)OC(C)(C)C)C(N)=O; 7.1
3. C[C@H](NC(=O)[C@H](CCCN=C(N)N)NC(=O)OC(C)(C)C)C(=O)N[C@H](Cc1c[nH]c2ccccc12)C(=O)N[C@@H](Cc1ccccc1)C(=O)N1CCC[C@@H]1C(=O)N1CCC[C@H]1C(=O)NCC(N)=O; 7
4. CCCC[C@H](NC(=O)[C@@H]1CCCN1C(=O)[C@H]1CCCN1C(=O)[C@H](Cc1ccccc1)NC(=O)[C@@H](Cc1c[nH]c2ccccc12)NC(=O)[C@H](C)NC(=O)[C@@H](N)CCCN=C(N)N)C(N)=O; 5.9

* * *

- System Tested: UniProt P16177
- Sequence (whole entry): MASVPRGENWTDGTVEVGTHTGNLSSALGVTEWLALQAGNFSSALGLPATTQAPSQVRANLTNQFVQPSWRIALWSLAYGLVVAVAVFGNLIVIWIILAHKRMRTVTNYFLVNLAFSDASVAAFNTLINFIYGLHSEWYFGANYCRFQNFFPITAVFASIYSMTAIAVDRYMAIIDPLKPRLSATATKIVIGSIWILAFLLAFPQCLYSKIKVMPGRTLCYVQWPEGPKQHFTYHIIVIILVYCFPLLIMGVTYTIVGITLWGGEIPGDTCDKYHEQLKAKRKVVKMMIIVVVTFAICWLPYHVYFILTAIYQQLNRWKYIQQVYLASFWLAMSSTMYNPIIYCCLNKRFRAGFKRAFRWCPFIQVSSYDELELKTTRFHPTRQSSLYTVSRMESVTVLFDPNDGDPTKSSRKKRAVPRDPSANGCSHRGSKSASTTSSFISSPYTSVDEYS
- Experimental Protocol: Compound was evaluated for antagonism of contractile response of rat portal vein at Tachykinin receptor 3
- Assay type: functional
Square brackets hold non-standard residues; d marks the D form. Peptide text beside a SMILES is read from it. * marks the point of attachment. Nle = CCCC[C@H](N)C(=O)O; Bz = O=C(c1ccccc1)*
The following molecules are shown together with reported pKB values.
Metric Name: pKB

1) CCCC[C@H](NC(=O)[C@@H]1CCCN1C(=O)[C@H]1CCCN1C(=O)[C@H](Cc1ccccc1)NC(=O)[C@@H](Cc1c[nH]c2ccccc12)NC(=O)[C@H](C)NC(=O)[C@H](C)NC(=O)c1ccccc1)C(N)=O (Bz-AA[dW]F[dP]P[Nle]-NH2); 6
2) CCCC[C@H](NC(=O)[C@@H]1CCCN1C(=O)[C@H]1CCCN1C(=O)[C@H](Cc1ccccc1)NC(=O)[C@@H](Cc1c[nH]c2ccccc12)NC(=O)[C@H](C)NC(=O)[C@H](CCC(N)=O)NC(=O)c1ccccc1)C(N)=O; 5.6
3) CCCC[C@H](NC(=O)[C@@H]1CCCN1C(=O)[C@H]1CCCN1C(=O)[C@H](Cc1ccccc1)NC(=O)[C@@H](Cc1c[nH]c2ccccc12)NC(=O)[C@H](C)NC(=O)[C@H](C)NC(=O)OC(C)(C)C)C(N)=O; 4.7
4) CCCC[C@H](NC(=O)[C@@H]1CCCN1C(=O)[C@H]1CCCN1C(=O)[C@H](Cc1ccccc1)NC(=O)[C@@H](Cc1c[nH]c2ccccc12)NC(=O)[C@H](C)NC(=O)[C@H](CCC(N)=O)NC(=O)OC(C)(C)C)C(N)=O; 5.1
